- Tested on: glycogen synthase kinase-3 (GSK3A per assay name; protocol says GSK3B)
- assay info: GSK3 binders on small-molecule microarrays, primary screen, biochemical, small-molecule microarray, 635 nm fluorescence, GSK3A (AID 1103); also: the record names both GSK3A and GSK3B
- test parameters: small-molecule microarray binding, fluorescence 635 nm; higher = more signal
Kindly supply the reported composite z-score values for the records listed here.

Completed entries (count: 5):
molecule	composite z-score
C=C(CCCC)C(=O)CC[C@@H](OC(=O)c1ccccc1-c1ccccc1C(=O)O)c1ccc(OCCO)cc1	0.585
O=C(CS)NCCCCCCNC(=O)[C@@H]1C[C@@H]2C(=O)NCC(=O)N2[C@@H]1c1cccc(OCCO)c1	0.837
CN(C)CCCC[C@@H]1NC(=O)[C@@H]2C[C@H](C(=O)NCCCCCCN)[C@H](c3cccc(OCCO)c3)N2C1=O	1.22
C=CCC(OC(C)=O)[C@@H]1[C@@H](N(Cc2cc3ccccc3o2)C(=O)c2cccc3ccccc23)c2cc(OCCCO)ccc2N1C(=O)c1ccc(-c2ccccc2)cc1 (some centres not stated)	-0.34
COc1ccc(C(=O)Nc2ccc(CN3C(=O)[C@]4(O[C@H](CCO)[C@@H]([Si](C)(C)c5ccc(OC)cc5)[C@@H]4C)c4ccccc43)cc2)cc1	0.762

Batch request: composite z-score for each of the following molecules.
1. O=C1c2ccccc2[C@](Cc2ccccc2I)(C(=O)NCCN2CCOCC2)[C@H](c2ccc(CO)cc2)N1C1CCCCC1
2. COc1ccc([Si](C)(C)[C@@H]2[C@@H](CC(=O)N3CCC[C@H]3CO)O[C@]3(C(=O)N(c4ccccc4)c4ccccc43)[C@H]2C)cc1

1: 1.3; 2: 1.23

----------
- target entity: Dihydroorotate dehydrogenase (quinone), mitochondrial (Plasmodium falciparum (isolate 3D7)) (UniProt Q08210)
- Sequence (Q08210 whole entry, looked up): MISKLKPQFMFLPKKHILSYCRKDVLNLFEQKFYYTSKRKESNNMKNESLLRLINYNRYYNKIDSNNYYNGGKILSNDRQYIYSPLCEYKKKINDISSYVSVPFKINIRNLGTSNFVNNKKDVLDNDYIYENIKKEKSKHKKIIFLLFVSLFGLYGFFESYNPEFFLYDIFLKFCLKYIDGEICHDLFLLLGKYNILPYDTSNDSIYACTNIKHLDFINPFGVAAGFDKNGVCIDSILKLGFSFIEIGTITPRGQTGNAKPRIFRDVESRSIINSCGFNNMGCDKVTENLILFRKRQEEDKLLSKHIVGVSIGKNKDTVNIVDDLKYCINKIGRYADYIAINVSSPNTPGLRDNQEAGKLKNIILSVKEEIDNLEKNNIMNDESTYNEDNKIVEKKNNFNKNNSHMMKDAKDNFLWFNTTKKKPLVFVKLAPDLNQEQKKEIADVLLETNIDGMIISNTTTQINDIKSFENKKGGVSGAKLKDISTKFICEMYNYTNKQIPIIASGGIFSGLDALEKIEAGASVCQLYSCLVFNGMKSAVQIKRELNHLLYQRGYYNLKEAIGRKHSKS
- assay info: PfDHODH enzyme inhibitors, primary screen, biochemical, C-terminal His tag, absorbance 600 nm (AID 1175);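 also: recombinant parasite enzyme with a five histidine tag at its C terminus; test concentration not given here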
- test parameters: DCIP absorbance 600 nm, higher = more signal, called active from +8 up or from −8 down
Rule: composite z-score of -0.4 or more gives Satisfied; anything lower gives Not satisfied.

compound	discrete label
CCCCCN1CC=CC23O[C@@H]4/C=C\CCC(C)OC(=O)C4[C@H]2C(=O)N(C(C)CO)[C@@H]3C1=O (some centres not stated)	Satisfied

Shift focus to the following entry.
Check if composite z-score >= -0.4 (inclusive). Item: CC(C)NC(=O)[C@@H]1c2ccccc2C(=O)N(C2Cc3ccccc3C2)[C@H]1c1ccc(CO)cc1
Not satisfied

----------
- assay info: inhibitors of hydroxyurea-induced Chk1 phosphorylation, primary screen, imaging, HeLa, phospho-Chk1 nuclear intensity (AID 1187); also: test concentration not given here
- test parameters: hydroxyurea-induced phospho-Chk1 immunofluorescence imaging, higher = more signal
Rule: z-score of -0.2 or more gives T; anything lower gives F.

Some entries whose results are on file:
compound	discrete label
Cc1ccc(S[C@]2(C(=O)O)CC(=O)N(C(C)C)[C@@H]2c2ccc(CO)cc2I)cc1	T
NC(=O)NCC#Cc1ccc2c(c1)[C@]1(C(=O)N2)[C@H](c2ccc(O)cc2)N2[C@H](c3ccccc3)[C@H](c3ccccc3)OC(=O)[C@H]2[C@@H]1C(=O)O	T
C=CCOC(=O)[C@H]1[C@@H]2C(=O)O[C@@H](c3ccccc3)[C@@H](c3ccccc3)N2[C@@H](c2ccc(OCCOC(=O)[C@H]3C[C@H]4C(=O)N[C@@H](CCCCN(C)C)C(=O)N4[C@H]3c3ccc(O)cc3)cc2)[C@]12C(=O)Nc1ccc(I)cc12	T

Check if z-score >= -0.2 (inclusive). Item: COC(=O)[C@]1(CCC(=O)OC(C)(C)C)N=C(c2ccc(OCCCO)cc2)O[C@@H]1c1ccccc1CN=[N+]=[N-]
T

Check if z-score >= -0.2 (inclusive). Item: CC(CO)N1C(=O)[C@@H]2C3C(=O)OCCC/C=C\[C@H]3OC23C=CCN(C(C)(C)C)C(=O)[C@@H]13 (stereo partly drawn)
F

Check if z-score >= -0.2 (inclusive). Item: O=C1c2ccccc2[C@](Cc2ccccc2I)(C(=O)NCCN2CCOCC2)[C@H](c2ccc(CO)cc2)N1Cc1ccccc1Cl
T

Check if z-score >= -0.2 (inclusive). Item: COCCOC(=O)N1C(=O)[C@@]2(c3cc(C#CCC(C(=O)OC)C(=O)OC)ccc31)[C@H](C(=O)Nc1nc3ccccc3s1)[C@H]1C(=O)O[C@H](c3ccccc3)[C@H](c3ccccc3)N1[C@@H]2c1ccccc1OCCO
T

Check if z-score >= -0.2 (inclusive). Item: CCS[C@H]1[C@@H](C(=O)O)[C@H](c2ccc(C)cc2)N(S(=O)(=O)c2ccc(C)cc2)[C@@H]1CC
F

Check if z-score >= -0.2 (inclusive). Item: CC1CC/C=C\[C@H]2OC34C=CCN(C(C)(C)C)C(=O)[C@H]3N(CCO)C(=O)[C@@H]4C2C(=O)O1 (stereo partly drawn)
F

Check if z-score >= -0.2 (inclusive). Item: COc1cc(C(O)C2C=CC3C(=O)NC(=O)C3N2Nc2ccccn2)cc(OC)c1OC (stereo not drawn)
T

----------
- assay info: small-molecule microarray binders of probe aXIP, primary screen, biochemical, NeuroSMM set, 635/667 nm fluorescence (AID 1119);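 also: probe is the protein aXip251-270 applied at 1 µg/mL to compound-printed slides; binding of probe to printed compounds measured as 667 nm fluorescence plus signal to noise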
- test parameters: higher = more signal, called active from +8 up or from −8 down
measurement kind: composite Z-score
Numbers only.

Completed entries (count: 2):
molecule	composite Z-score
O[C@@H](Cc1ccccc1)[C@H]1C2C=CCCC=C2CN1Cc1cccc(Cl)c1 (some centres undefined)	0.0338
CC(C)C(=C=CC[C@@H](O)c1ccc(OCCO)cc1)C[C@@H](O)COCc1ccccc1	-0.114

Batch request: composite Z-score for each of the following molecules.
1. CC(C)N1C(=O)[C@@]2(Cc3ccccc31)c1ccccc1C(=O)N(Cc1ccccc1Cl)[C@H]2c1ccc(CO)cc1
2. C=CC(=C)[C@H]1Oc2ccccc2S(=O)(=O)N2CCC[C@@H]12
3. COCCOC(=O)N1C(=O)[C@@]2(c3cc(C#CCNC(N)=O)ccc31)[C@H](C(=O)Nc1nc3ccccc3s1)[C@H]1C(=O)O[C@H](c3ccccc3)[C@H](c3ccccc3)N1[C@@H]2c1ccc(OCCO)cc1
4. C#C[C@H](O[Si](C#Cc1ccc(Oc2ccccc2)cc1)(C(C)C)C(C)C)c1ccccc1
5. NC(=O)NCC#Cc1ccc2c(c1)[C@]1(C(=O)N2)[C@H](C(=O)Nc2nc3ccccc3s2)[C@H]2C(=O)O[C@H](c3ccccc3)[C@H](c3ccccc3)N2[C@@H]1c1ccccc1OCCO
6. C=C[C@H](OC)[C@@H](OC(=O)Nc1ccc(OC)cc1)c1ccc(O)c(F)c1
7. NCCCCCNC(=O)[C@@H]1C[C@@H]2C(=O)N[C@@H](Cc3ccccc3)C(=O)N2[C@@H]1c1ccc(O)cc1

0.203
0.0556
-0.335
0.29
1.24
0.111
0.839

----------
- assay info: basal HepG2 mitochondrial membrane potential changes, profiling panel, cell-based, JC-1 fluorescence, 24 h, 100 nL compound (AID 1167); also: test concentration not given here
- test parameters: higher = more signal
Rule: z-score of -0.4 or more gives 1; anything lower gives 0.

compound	discrete label
C[N+](C)(C)CCCCNC(=O)[C@H]1C[C@H]2C(=O)N3CCC[C@H]3C(=O)N2[C@H]1c1cccc(OCCO)c1	0
COc1ccc([Si](C)(C)[C@@H]2[C@@H](CC(=O)N3CCC[C@H]3CO)O[C@]3(C(=O)N(c4ccccc4)c4ccccc43)[C@H]2C)cc1	1
C=CC[C@]1(C(=O)NCCCOC)N=C(c2ccc(OCCCO)cc2)O[C@H]1c1ccccc1CN=[N+]=[N-]	1
COC(=O)[C@@]1(CCC(=O)OC(C)(C)C)N=C(c2ccc(OCCCO)cc2)O[C@H]1c1ccccc1N=[N+]=[N-]	0
COCCOC(=O)N1C(=O)[C@@]2(c3cc(C#CC4(O)CCCCCC4)ccc31)[C@H](c1ccccc1OCCO)N1[C@H](c3ccccc3)[C@H](c3ccccc3)OC(=O)[C@H]1[C@@H]2C(=O)N1CCN(c2ncccn2)CC1	1

Check if z-score >= -0.4 (inclusive). Item: C=CC1(C(=O)OC)CC=C(C(=O)OC)CC1 (configuration not stated)
1

Check if z-score >= -0.4 (inclusive). Item: CN(C)CCCC[C@@H]1NC(=O)[C@@H]2C[C@H](C(=O)NCCCCCCN)[C@H](c3cccc(OCCO)c3)N2C1=O
0

----------
- assay info: small-molecule microarray binders of probe aEGFR, primary screen, biochemical, biotinylated probe, 635/667 nm fluorescence (AID 1097);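 also: probe is a biotinylated anti-EGFR antibody binding compounds printed on slides; score combines fluorescence near 667 nm and signal to noise of each spot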
- test parameters: higher = more signal
Rule: composite z-score of -0.1 or more gives TRUE; anything lower gives FALSE.

Check if composite z-score >= -0.1 (inclusive). Item: COC(=O)[C@@]1(Cc2ccccc2)[C@H]2c3cc(C(=O)N4CCCC4)n(Cc4ccc(S(C)(=O)=O)cc4)c3C[C@H]2CN1C(=O)c1ccccc1
TRUE

Check if composite z-score >= -0.1 (inclusive). Item: CCCC[C@@H]1C[C@H]1[C@@H](NC(=O)c1ccco1)c1ccc(-c2ccccc2)cc1
TRUE

Check if composite z-score >= -0.1 (inclusive). Item: COc1cc(COC(C)=O)ccc1OC(C)=O
TRUE

Check if composite z-score >= -0.1 (inclusive). Item: O=C1C[C@@](C(=O)NC2CC2)(c2ccc([N+](=O)[O-])cc2)[C@@H](c2ccc(CO)cc2I)N1C1CCCCC1
TRUE

Check if composite z-score >= -0.1 (inclusive). Item: COc1ccc(-c2cc3c(c(-c4ccc(Oc5ccccc5)cc4)n2)[Si](C(C)C)(C(C)C)OC3)cn1
FALSE

Check if composite z-score >= -0.1 (inclusive). Item: CCOC(=O)C[C@H]1[C@H](OC(=O)c2ccc(C(=O)c3ccccc3)cc2)[C@@H](NC(=O)c2ccccc2)c2cc(OCCCO)ccc2N1C(=O)Cc1ccc(OC)cc1
FALSE

Check if composite z-score >= -0.1 (inclusive). Item: C[C@H]1NC(=O)[C@@]23C(=O)N[C@@H](Cc4ccccc4)C2[C@H](C)[C@@]2(C)O[C@H]2C3/C=C/C/C=C\CNC(=O)[C@@H]2CCCN2C1=O (some centres not stated)
FALSE
